Sourced from patent US20240109974A1

- tgt: T1, human TNFR2 on the surface of CHO-TNFR2 cells (human, UniProt P20333 23-461)
- T1 construct: whole, on cells
- T1 sequence (looked up): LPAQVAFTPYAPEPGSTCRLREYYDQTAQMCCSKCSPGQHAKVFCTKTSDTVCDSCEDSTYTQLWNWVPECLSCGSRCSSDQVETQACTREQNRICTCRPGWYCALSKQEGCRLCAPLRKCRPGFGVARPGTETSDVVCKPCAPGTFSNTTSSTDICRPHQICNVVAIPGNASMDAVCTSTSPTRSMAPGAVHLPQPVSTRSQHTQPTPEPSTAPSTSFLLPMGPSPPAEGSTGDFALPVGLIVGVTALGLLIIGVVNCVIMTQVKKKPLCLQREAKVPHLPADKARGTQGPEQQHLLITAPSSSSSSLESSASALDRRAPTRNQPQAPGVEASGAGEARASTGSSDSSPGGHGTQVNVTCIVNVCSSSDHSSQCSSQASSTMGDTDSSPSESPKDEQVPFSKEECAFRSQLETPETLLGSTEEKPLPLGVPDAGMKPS
- assay details: competition flow cytometry on CHO-TNFR2 cells, competitor TNFα-biotin; area under the MFI curve
- Design: unit not given beside the values
Below, each entry is listed with its recorded AUC.
parameter: AUC

# binder, reported value
data = [
    ("224-Hu2 (antibody, V domains shown, Humanized form of #224; also called VH9 + VL7) VH: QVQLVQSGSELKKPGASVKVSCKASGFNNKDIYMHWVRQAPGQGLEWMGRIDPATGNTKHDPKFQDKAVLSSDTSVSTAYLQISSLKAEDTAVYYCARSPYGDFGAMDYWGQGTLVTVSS VL: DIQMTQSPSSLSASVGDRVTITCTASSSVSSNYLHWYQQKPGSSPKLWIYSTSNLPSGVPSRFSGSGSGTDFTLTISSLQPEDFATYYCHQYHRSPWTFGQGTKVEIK", 19200),
    ("219-Hu5 (antibody, V domains shown, also called VH7 + VL5) VH: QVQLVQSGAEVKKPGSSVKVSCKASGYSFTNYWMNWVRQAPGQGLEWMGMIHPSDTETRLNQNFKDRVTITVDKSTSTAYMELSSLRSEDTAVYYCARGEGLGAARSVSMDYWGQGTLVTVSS VL: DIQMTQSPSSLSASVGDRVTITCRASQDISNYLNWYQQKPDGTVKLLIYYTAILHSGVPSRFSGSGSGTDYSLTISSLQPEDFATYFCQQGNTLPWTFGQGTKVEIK", 7260),
    ("224-Hu3 (antibody, V domains shown, Humanized form of #224; also called VH9 + VL8) VH: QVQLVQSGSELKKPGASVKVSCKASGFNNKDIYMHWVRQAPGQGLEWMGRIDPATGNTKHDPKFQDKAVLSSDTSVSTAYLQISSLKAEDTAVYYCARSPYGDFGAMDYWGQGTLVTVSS VL: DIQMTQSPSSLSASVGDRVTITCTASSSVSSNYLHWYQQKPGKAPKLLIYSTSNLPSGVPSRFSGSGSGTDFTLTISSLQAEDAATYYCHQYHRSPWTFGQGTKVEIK", 18700),
]
